study_target: Aspartate--tRNA(Asp/Asn) ligase (Mycobacterium tuberculosis (strain ATCC 25618 / H37Rv))
method_summary: Assay for Asp RNA synthetase-1 from Mycobacterium tuberculosis
Assay type: functional
Set-up: scale not given: in the data most compounds retested in dose-response had high values
applied_conditions: 30 µM
value_type: Percent Effect (%)
Write the value in % as a bare number.

| compound | Percent Effect, % |
| --- | --- |
| COc1ccc(Br)c(C(=O)N2CCC(c3n[nH]c(C4CC4)n3)CC2)c1 | 0.422 |
| Cc1ccc(C(=O)N2CCCC(C(=O)N3CCCCC3)C2)c(O)c1 (stereo not given) | -0.062 |
| Cn1cc(C[C@H]2[C@H](N3CCOCC3)CCN2C(=O)c2ccco2)cn1 | -2.37 |
| CCOCCCNC(=O)c1cc(C(C)C)nc(N2CCCCCC2)n1 | 1.1 |

Continue with the compound presented below.
What the record says about CS(=O)(=O)NCC(=O)N1CCCC1c1noc(C2CC2)n1 (stereo not given) : Percent Effect is 0.264
